The compounds below have reported pIC50 for human cytochrome P450 1A2 (Homo sapiens, UniProt P05177).
The quantity pIC50 is defined as the negative base-10 logarithm of the molar concentration.

- COMPOUND: "Cn1cnnc1SCC(=O)C12CC3CC(CC(C3)C1)C2 [Compound 28]"
  REPORTED RESULT: 4.68

Query: Report pIC50 on human cytochrome P450 1A2 (Homo sapiens, UniProt P05177) for this entry: O=C(C[S+]([O-])Cc1cccs1)C12CC3CC(CC(C3)C1)C2 (stereo not drawn) [Compound 14]
Sequence (P05177 whole entry): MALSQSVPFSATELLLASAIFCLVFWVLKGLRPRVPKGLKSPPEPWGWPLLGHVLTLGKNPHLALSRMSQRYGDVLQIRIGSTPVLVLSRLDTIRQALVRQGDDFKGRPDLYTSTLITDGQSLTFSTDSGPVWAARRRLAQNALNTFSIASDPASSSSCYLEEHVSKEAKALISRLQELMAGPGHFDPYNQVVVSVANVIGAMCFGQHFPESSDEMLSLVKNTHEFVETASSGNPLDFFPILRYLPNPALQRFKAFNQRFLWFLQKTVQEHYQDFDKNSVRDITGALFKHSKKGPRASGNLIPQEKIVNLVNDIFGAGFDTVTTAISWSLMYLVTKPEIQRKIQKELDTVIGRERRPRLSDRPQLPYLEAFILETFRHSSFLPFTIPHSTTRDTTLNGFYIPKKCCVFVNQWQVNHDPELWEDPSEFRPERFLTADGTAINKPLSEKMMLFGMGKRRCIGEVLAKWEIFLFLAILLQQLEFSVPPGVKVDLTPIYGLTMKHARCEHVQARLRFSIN
Response: 4.48

###

EXPERIMENTAL SYSTEM: mouse 11β-HSD1 (Mus musculus, UniProt P50172)
Sequence (P50172 whole entry): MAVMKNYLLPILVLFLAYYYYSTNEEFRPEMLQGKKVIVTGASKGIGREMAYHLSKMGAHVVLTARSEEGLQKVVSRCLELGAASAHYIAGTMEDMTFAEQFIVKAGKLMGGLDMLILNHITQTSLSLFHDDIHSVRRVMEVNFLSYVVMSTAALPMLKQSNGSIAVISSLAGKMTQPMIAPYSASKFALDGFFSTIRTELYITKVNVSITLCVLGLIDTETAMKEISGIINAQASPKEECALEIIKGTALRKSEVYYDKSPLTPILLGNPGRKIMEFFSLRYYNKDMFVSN
TEST NAME: Inhibition of mouse 11β-HSD1
Each entry below carries its reported pIC50.
The quantity pIC50 is defined as the negative base-10 logarithm of the molar concentration.

Query: Specify measured pIC50 for O=C(COCc1nccs1)C12CC3CC(CC(C3)C1)C2 .
Response: 7.74

Query: Specify measured pIC50 for Cn1cnnc1[S+]([O-])CC(=O)C12CC3CC(CC(C3)C1)C2 (stereo not shown) .
Response: 5.51

Query: Specify measured pIC50 for O=C(C[S+]([O-])Cc1ccco1)C12CC3CC(CC(C3)C1)C2 (stereo not shown) .
Response: 7.42

###

EXPERIMENTAL SYSTEM: human cytochrome P450 2C9 (Homo sapiens, UniProt P11712)
Sequence (P11712 whole entry): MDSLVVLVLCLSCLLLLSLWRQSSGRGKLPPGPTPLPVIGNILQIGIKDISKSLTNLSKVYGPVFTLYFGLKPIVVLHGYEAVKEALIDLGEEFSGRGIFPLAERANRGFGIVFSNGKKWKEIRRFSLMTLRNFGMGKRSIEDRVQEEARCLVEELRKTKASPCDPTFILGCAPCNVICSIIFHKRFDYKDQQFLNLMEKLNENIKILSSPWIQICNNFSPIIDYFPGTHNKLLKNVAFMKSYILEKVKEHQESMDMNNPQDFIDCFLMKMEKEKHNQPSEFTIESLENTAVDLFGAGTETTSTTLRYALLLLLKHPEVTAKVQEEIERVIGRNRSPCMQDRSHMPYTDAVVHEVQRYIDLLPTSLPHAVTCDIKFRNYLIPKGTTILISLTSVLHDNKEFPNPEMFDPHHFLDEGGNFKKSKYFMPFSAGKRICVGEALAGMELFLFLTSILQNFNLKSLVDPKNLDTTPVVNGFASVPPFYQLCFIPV
ASSAY ENDPOINT: IC50 (µM)
Report only the number, with the unit µM understood.

Query: Report IC50 on human cytochrome P450 2C9 (Homo sapiens, UniProt P11712) for this entry: Cc1nnc(S(=O)(=O)CC(=O)C23CC4CC(CC(C4)C2)C3)s1
Response: 11

###

EXPERIMENTAL SYSTEM: UniProt P33261
Sequence (P33261 whole entry): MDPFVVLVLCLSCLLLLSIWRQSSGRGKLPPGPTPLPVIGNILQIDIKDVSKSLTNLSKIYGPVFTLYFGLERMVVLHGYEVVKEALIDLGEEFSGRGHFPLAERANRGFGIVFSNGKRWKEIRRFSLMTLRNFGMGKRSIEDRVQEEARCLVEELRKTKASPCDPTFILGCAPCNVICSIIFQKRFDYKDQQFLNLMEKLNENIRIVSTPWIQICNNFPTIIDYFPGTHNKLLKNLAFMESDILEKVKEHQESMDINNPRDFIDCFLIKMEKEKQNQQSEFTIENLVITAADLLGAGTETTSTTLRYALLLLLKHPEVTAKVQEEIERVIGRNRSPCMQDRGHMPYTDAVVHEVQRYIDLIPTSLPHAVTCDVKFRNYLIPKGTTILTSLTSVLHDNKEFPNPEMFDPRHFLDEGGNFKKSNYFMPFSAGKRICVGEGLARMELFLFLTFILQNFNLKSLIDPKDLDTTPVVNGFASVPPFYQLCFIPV
Each entry below carries its reported pIC50.
The quantity pIC50 is defined as the negative base-10 logarithm of the molar concentration.

Consider the following illustrative entries.
- COMPOUND: "Cn1cnnc1SCC(=O)C12CC3CC(CC(C3)C1)C2"
  EXPERIMENTAL SYSTEM: "UniProt P33261"
  REPORTED RESULT: 5.44
- COMPOUND: "O=C(C[S+]([O-])Cc1cccs1)C12CC3CC(CC(C3)C1)C2 (stereo not drawn)"
  EXPERIMENTAL SYSTEM: "UniProt P33261"
  REPORTED RESULT: 4.52

Query: Report pIC50 on UniProt P33261 for this entry: Cc1nnc(S(=O)(=O)CC(=O)C23CC4CC(CC(C4)C2)C3)s1
Response: 4.77

###

The compounds below have reported pIC50 for human cytochrome P450 3A4 (Homo sapiens, UniProt P08684).
The quantity pIC50 is defined as the negative base-10 logarithm of the molar concentration.

- COMPOUND: "O=C(C[S+]([O-])Cc1cccs1)C12CC3CC(CC(C3)C1)C2 (stereo not drawn)"
  pIC50: 4.92
- COMPOUND: "Cn1cnnc1SCC(=O)C12CC3CC(CC(C3)C1)C2"
  pIC50: 4.21

Proceeding to the next compound to report its pIC50.
Query: Specify measured pIC50 for Cc1nnc(S(=O)(=O)CC(=O)C23CC4CC(CC(C4)C2)C3)s1 .
Response: 4.52

###

EXPERIMENTAL SYSTEM: human 11β-HSD1 (Homo sapiens, UniProt P28845)
Sequence (P28845 whole entry): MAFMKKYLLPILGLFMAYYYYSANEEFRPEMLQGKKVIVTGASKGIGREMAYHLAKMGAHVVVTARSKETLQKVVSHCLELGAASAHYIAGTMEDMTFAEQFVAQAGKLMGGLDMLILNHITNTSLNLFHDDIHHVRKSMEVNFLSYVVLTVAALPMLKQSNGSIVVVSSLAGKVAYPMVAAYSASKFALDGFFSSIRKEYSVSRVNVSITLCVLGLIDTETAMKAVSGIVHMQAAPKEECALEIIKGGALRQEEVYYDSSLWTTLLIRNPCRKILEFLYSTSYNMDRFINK
TEST NAME: 11β-HSD1 inhibition cellular assay
APPLIED CONDITIONS: IC50, human 11β-HSD1, HEK293 cell line transfected with human HSD11B1 gene; mean of three measurements, variance less than 20 %
ASSAY ENDPOINT: IC50 (nM)
Report only the number, with the unit nM understood.

- COMPOUND: "Cc1nnc(SCC(=O)C23CC4CC(CC(C4)C2)C3)n1C"
  EXPERIMENTAL SYSTEM: "human 11β-HSD1 (Homo sapiens, UniProt P28845)"
  IC50 (nM): 36
- COMPOUND: "Cn1c(SCC(=O)C23CC4CC(CC(C4)C2)C3)nnc1C1CC1"
  EXPERIMENTAL SYSTEM: "human 11β-HSD1 (Homo sapiens, UniProt P28845)"
  IC50 (nM): 129
- COMPOUND: "O=C(CSc1nnc(C2CC2)n1C1CC1)C12CC3CC(CC(C3)C1)C2"
  EXPERIMENTAL SYSTEM: "human 11β-HSD1 (Homo sapiens, UniProt P28845)"
  IC50 (nM): 1860
- COMPOUND: "Cc1csc(CSCC(=O)C23CC4CC(CC(C4)C2)C3)n1"
  EXPERIMENTAL SYSTEM: "human 11β-HSD1 (Homo sapiens, UniProt P28845)"
  IC50 (nM): 327
- COMPOUND: "O=C(CSc1cccs1)C12CC3CC(CC(C3)C1)C2"
  EXPERIMENTAL SYSTEM: "human 11β-HSD1 (Homo sapiens, UniProt P28845)"
  IC50 (nM): 101

Query: Report IC50 on human 11β-HSD1 (Homo sapiens, UniProt P28845) for this entry: Nc1nnc(S(=O)(=O)CC(=O)C23CC4CC(CC(C4)C2)C3)s1
Response: 1790

Query: Report IC50 on human 11β-HSD1 (Homo sapiens, UniProt P28845) for this entry: Cc1nnc([S+]([O-])CC(=O)C23CC4CC(CC(C4)C2)C3)s1 (stereo not drawn)
Response: 26

Query: Report IC50 on human 11β-HSD1 (Homo sapiens, UniProt P28845) for this entry: O=C(COCc1nccs1)C12CC3CC(CC(C3)C1)C2
Response: 41

###

ASSAY ENDPOINT: melting point

Consider the following illustrative entries.
- COMPOUND: "O=C(CSc1cccs1)C12CC3CC(CC(C3)C1)C2"
  melting point: "69 to 72 °C"
- COMPOUND: "O=C(CSCc1nccs1)C12CC3CC(CC(C3)C1)C2"
  melting point: "55 to 58 °C"
- COMPOUND: "O=C(C[S+]([O-])Cc1ccco1)C12CC3CC(CC(C3)C1)C2 (stereo not drawn)"
  melting point: "75 to 79 °C"
- COMPOUND: "Cn1cnnc1[S+]([O-])CC(=O)C12CC3CC(CC(C3)C1)C2 (stereo not drawn)"
  melting point: "124.5 to 127 °C"
- COMPOUND: "Cc1nnc(S(=O)(=O)CC(=O)C23CC4CC(CC(C4)C2)C3)s1"
  melting point: "111 to 113 °C"

Proceeding to the next compound to report its melting point.
Query: Specify measured melting point for CSc1nnc(SCC(=O)C23CC4CC(CC(C4)C2)C3)s1 .
Response: 133.5 to 135 °C

###

TEST NAME: Membrane permeability in the Caco-2 cell model
Assay type: in vitro ADME
APPLIED CONDITIONS: human
Each entry below carries its reported Papp A→B at 20 μM.
Report only the number, with the unit ×10⁻⁶ cm/s understood.

- COMPOUND: "O=C(C[S+]([O-])Cc1cccs1)C12CC3CC(CC(C3)C1)C2 (centres unmarked)"
  MEASUREMENT UNIT: "×10⁻⁶ cm/s"
  Papp A→B at 20 μM: 22

Query: Specify measured Papp A→B at 20 μM for Cn1ccnc1[S+]([O-])CC(=O)C12CC3CC(CC(C3)C1)C2 (centres unmarked) .
Response: 44

###

EXPERIMENTAL SYSTEM: mouse 11β-HSD1 (Mus musculus, UniProt P50172)
TEST NAME: Inhibition of mouse 11β-HSD1
Assay type: cell-based
ASSAY ENDPOINT: IC50 (nM)
Report only the number, with the unit nM understood.

Consider the following illustrative entries.
- COMPOUND: "Cc1nnc(SCC(=O)C23CC4CC(CC(C4)C2)C3)n1C"
  IC50 [nM]: 248
- COMPOUND: "O=C(C[S+]([O-])Cc1cccs1)C12CC3CC(CC(C3)C1)C2 (stereo not shown)"
  IC50 [nM]: 20
- COMPOUND: "Cn1ccnc1[S+]([O-])CC(=O)C12CC3CC(CC(C3)C1)C2 (stereo not shown)"
  IC50 [nM]: 121

Proceeding to the next compound to report its IC50.
Query: Specify measured IC50 for Cc1nnc([S+]([O-])CC(=O)C23CC4CC(CC(C4)C2)C3)s1 (stereo not shown) .
Response: 44

###

Each entry below carries its reported pIC50.
EXPERIMENTAL SYSTEM: UniProt:P28845
TEST NAME: 11β-HSD1 inhibition cellular assay
APPLIED CONDITIONS: IC50, human 11β-HSD1, HEK293 cell line transfected with human HSD11B1 gene; mean of three measurements, variance less than 20 %
The quantity pIC50 is defined as the negative base-10 logarithm of the molar concentration.

- COMPOUND: "Cn1ccnc1S(=O)(=O)CC(=O)C12CC3CC(CC(C3)C1)C2"
  pIC50: 7.21

Query: Specify measured pIC50 for Cn1ccnc1[S+]([O-])CC(=O)C12CC3CC(CC(C3)C1)C2 (stereo not shown) .
Response: 7.32

Query: Specify measured pIC50 for Cc1nnc(SCC(=O)C23CC4CC(CC(C4)C2)C3)n1C(C)C .
Response: 6.86

Query: Specify measured pIC50 for COCc1nnc(SCC(=O)C23CC4CC(CC(C4)C2)C3)n1C .
Response: 6.82

Query: Specify measured pIC50 for COC(=O)c1ccc(CSCC(=O)C23CC4CC(CC(C4)C2)C3)o1 .
Response: 6.58

Query: Specify measured pIC50 for O=C(C[S+]([O-])Cc1ccco1)C12CC3CC(CC(C3)C1)C2 (stereo not shown) .
Response: 7.39

Query: Specify measured pIC50 for Cn1cnnc1S(=O)(=O)CC(=O)C12CC3CC(CC(C3)C1)C2 .
Response: 7.02

Query: Specify measured pIC50 for CN(C)c1nnc(SCC(=O)C23CC4CC(CC(C4)C2)C3)s1 .
Response: 5.40

Data credit: paper PMC3170876
